# TARGET_ENTITY: His-TEV-DYRK1A Kinase domain (aa127-485) (Homo sapiens)
# Construct: His-TEV-DYRK1A Kinase domain (aa127-485); His (N); TEV cleavage site (N)
# EXPERIMENTAL_DETAILS: Kinase ADP assay (ADP Hunter Plus)
# Format: biochemical
MEASUREMENT_TYPE: IC50 (µM)

Solved entries (count: 4):
Cc1nc(-c2cccc(N3CCCC3)c2)c2c(-c3ccnc(N)c3)c[nH]c2n1 [Example 171] | 0.033
Cc1nc(NC(C)c2ccccn2)c2c(-c3ccnc(N)c3)c[nH]c2n1 (stereo not drawn) [Example 66] | 0.045
N#Cc1cc(-c2ccc3c(c2)OCO3)c2c(-c3cc(N)nc(N)c3)c[nH]c2n1 [Example 224] | 0.03
Cc1nc(CN2CCc3ccccc32)c2c(-c3ccnc(N)c3)c[nH]c2n1 [Example 178] | 0.013

P = Cc1nc(N2CC[C@H]3CCCC[C@@H]3C2)c2c(-c3ccnc(N)c3)c[nH]c2n1 [Example 111]
Q = Cc1nc(N2CCc3nccnc3C2)c2c(-c3cc(N)nc(N)c3)c[nH]c2n1 [Example 142]
Task item: Identify the entry with the smaller IC50: P or Q . Could you answer with the label of the item you picked?
Reply: P
(P: 0.013 µM, Q: 0.512 µM)
